- Test method notes: first-order primary biodegradation rate constant k (sorption-corrected, fDis-corrected) (d-1); higher = faster biodegradation
- Conditions used: river segment: Spain (ES) L_Contam; incubation temperature 24 °C
Observation type: first-order primary biodegradation rate constant k

[
  {
    "Compound": "N#Cc1cc(Br)c(O)c(Br)c1",
    "Observed result": 0.0939
  },
  {
    "Compound": "CC(=O)Nc1ccc(O)cc1",
    "Observed result": 2.82
  },
  {
    "Compound": "CC(C)(Oc1ccc(CCNC(=O)c2ccc(Cl)cc2)cc1)C(=O)O [Bezafibrate]",
    "Observed result": 0.263
  },
  {
    "Compound": "CCCCc1nc(Cl)c(CO)n1Cc1ccc(-c2ccccc2-c2nnn[nH]2)cc1",
    "Observed result": 0.299
  },
  {
    "Compound": "Cn1c(=O)c2c(ncn2C)n(C)c1=O",
    "Observed result": 0.895
  },
  {
    "Compound": "CC(C)(Oc1ccc(Cl)cc1)C(=O)O",
    "Observed result": 0.11
  },
  {
    "Compound": "Cc1ccc(C(C)NC(=O)[C@@H](NC(=O)OC(C)C)C(C)C)cc1 (stereo partly specified)",
    "Observed result": 0.203
  },
  {
    "Compound": "O=S(=O)(O)NC1CCCCC1 [Cyclamate]",
    "Observed result": 1.66
  },
  {
    "Compound": "Cc1cc(Cl)ccc1OC(C)C(=O)O (stereo unspecified)",
    "Observed result": 0.0286
  },
  {
    "Compound": "NS(=O)(=O)c1cc(C(=O)O)c(NCc2ccco2)cc1Cl [Furosemide]",
    "Observed result": 0.229
  },
  {
    "Compound": "Nc1ccc(S(=O)(=O)Nc2nccs2)cc1",
    "Observed result": 1.5
  }
]

The measurements presented in this section are drawn from the supplement of paper PMC11562712.
